Hey, just so you know, these numbers are from ChEMBL document CHEMBL5303573.

Target: UniProtKB Q8AA96
Sequence (Q8AA96 whole entry): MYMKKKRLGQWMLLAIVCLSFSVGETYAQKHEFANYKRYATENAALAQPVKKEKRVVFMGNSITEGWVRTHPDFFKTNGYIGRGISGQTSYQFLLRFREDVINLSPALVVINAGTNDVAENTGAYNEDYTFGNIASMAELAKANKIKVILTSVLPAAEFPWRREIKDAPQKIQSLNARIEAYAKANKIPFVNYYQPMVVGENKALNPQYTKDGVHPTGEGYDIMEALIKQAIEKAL
Assay: The drug is tested on Bacteroides thetaiotaomicron strain: VPI-5482 for biotransformation. The drug concentrations were measured before and after a 12-h incubation by liquid-chromatography-coupled mass spectrometry (LC–MS)
Format: ADME
Design: dose 2 uM
Conditions: 2 µM
Assay Metric: Bacterial Biotransformation

Molecule: COc1ccnc(C[S+]([O-])c2nc3ccc(OC(F)F)cc3[nH]2)c1OC (stereo not drawn)
Assay Metric: Bacterial Biotransformation
Test Result: Compound NOT metabolized

Molecule: CC(=O)SCC(Cc1ccccc1)C(=O)NCC(=O)OCc1ccccc1 (stereo not drawn)
Assay Metric: Bacterial Biotransformation
Test Result: Compound metabolized

Molecule: COc1ccc([C@@H]2Sc3ccccc3N(CCN(C)C)C(=O)[C@@H]2OC(C)=O)cc1
Assay Metric: Bacterial Biotransformation
Test Result: Compound NOT metabolized

Molecule: CC(=O)Nc1ccc(OC(C)=O)cc1 [DIACETAMATE]
Assay Metric: Bacterial Biotransformation
Test Result: Compound metabolized

Molecule: CCOC(=O)C1=C(C)NC(C)=C(C(=O)OC)C1c1cccc([N+](=O)[O-])c1 (stereo not drawn)
Assay Metric: Bacterial Biotransformation
Test Result: Compound NOT metabolized

Molecule: CC(=O)OCC(=O)[C@@]1(OC(C)=O)[C@@H](C)C[C@H]2[C@@H]3C[C@H](F)C4=CC(=O)C=C[C@]4(C)[C@@]3(F)[C@@H](O)C[C@@]21C [DIFLORASONE DIACETATE]
Assay Metric: Bacterial Biotransformation
Test Result: Compound metabolized

Molecule: C[C@@H]1CC[C@H]2[C@@H](C)C(=O)O[C@@H]3O[C@@]4(C)CC[C@@H]1[C@]32OO4
Assay Metric: Bacterial Biotransformation
Test Result: Compound NOT metabolized

Pending molecule:
Reported Bacterial Biotransformation (UniProtKB Q8AA96) for entry CC(=O)OCC(=O)NCCCOc1cccc(CN2CCCCC2)c1 [ROXATIDINE ACETATE] is Compound metabolized
